- MEASUREMENT DESCRIPTION: in vitro
- EXPERIMENTAL CONTEXT: human, MRC-5 cells (embryonal lung fibroblasts)
Positions of bridges follow the written chain, without caps; N, C: chain ends. Residues, ends and D or L forms follow the SMILES beside them.
MEASURE NAME: viability at 144 h (%)
# output: bare number, implied unit %

INPUT: Please report viability at 144 h for the following compound: CC[C@H](C)[C@@H]1NC(=O)[C@H](CCC(=O)O)NC(=O)[C@@H](NC(=O)[C@@H](NC(=O)CNC(=O)[C@@H]2CCCN2)[C@@H](C)O)CSSC[C@@H]2NC(=O)[C@H](C)NC(=O)[C@H](C)NC(=O)[C@H](Cc3ccc(O)cc3)NC(=O)[C@H](C)NC(=O)[C@H](CSSC[C@@H](C(=O)O)NC(=O)CNC(=O)[C@H]([C@@H](C)O)NC2=O)NC1=O [Guanylin] (H-PGTCEICAYAACTGC-OH; disulfide 4-12, 7-15 (inferred); N-terminus assumed)
OUTPUT: 100

Data credit: patent US20100216722A1
